- run-conditions: in acetone, 289.15 K
readout-name: solubility (mole fraction)
Please reply with the number alone, leaving off any unit.

Kindly indicate its recorded solubility (mole fraction). Item: `O=c1c2ccccc2sc2ccc(Cl)cc12`
0.00244

----------
- run-conditions: in 1,4-dioxane, 295.45 K
readout-name: solubility (mole fraction)
Please reply with the number alone, leaving off any unit.

Kindly indicate its recorded solubility (mole fraction). Item: `O=c1c2ccccc2sc2ccc(Cl)cc12`
0.00263

----------
- run-conditions: in ethanol, 303.15 K
readout-name: solubility (mole fraction)
Please reply with the number alone, leaving off any unit.

Kindly indicate its recorded solubility (mole fraction). Item: `O=c1c2ccccc2sc2ccc(Cl)cc12`
0.000943
